Exercise: state measured APD75 prolongation (% change vs before administration) at 10 µg/mL for each of the compounds provided.
test system: Purkinje fiber of the right ventricular free wall; assay: Influence on myocardial action potential duration time (APD75), isolated right ventricular free wall; set-up: species or system dog (hybrid adult dog); settings: Canis lupus familiaris, 20 min, dose 10.0 μg/ml, 20 minutes' incubation
Counter-ions that a name gives are not always drawn.
Numbers only, in %.

Look at this compound and give its reported APD75 prolongation (% change vs before administration) at 10 µg/mL. CCN(CCCOc1cccc2occ(C)c(=O)c12)CCNc1cc(=O)n(C)c(=O)n1C [Compound 14] 25

Go through the items and report each one's APD75 prolongation (% change vs before administration) at 10 µg/mL.
1. Cc1cc(=O)c2c(OCCCN3CCN(c4cc(=O)n(C)c(=O)n4C)CC3)cccc2o1 [Compound 40, hydrochloride]
2. CCOC(=O)c1cc(=O)c2ccc(OCCCN3CCN(c4cc(=O)n(C)c(=O)n4C)CC3)cc2o1 [Compound 50, oxalate]
3. Cn1c(N2CCN(CCCOc3cccc4oc(-c5ccncc5)cc(=O)c34)CC2)cc(=O)n(C)c1=O [Compound 25, dihydrochloride]
4. Cn1c(N2CCN(CCCOc3cccc4occc(=O)c34)CC2)cc(=O)n(C)c1=O [Compound 38, hydrochloride]
5. Cn1c(N2CCN(CCCOc3cccc4c3C(=O)CC(c3ccccc3)O4)CC2)cc(=O)n(C)c1=O (stereo not shown) [Compound 21, oxalate]

[29, 28, 27, 39, 20]

Look at this compound and give its reported APD75 prolongation (% change vs before administration) at 10 µg/mL. CC(C)NCC(O)c1ccc(NS(C)(=O)=O)cc1 (stereo not drawn) [d-sotalol, reference compound] 15.8
